- Test system: HCT-15 colon
- Protocol: NCI tumour cell line growth inhibition, 48 h
Assay Endpoint: TGI

- Compound: "O=S1(=O)NNC(=NCc2ccc(Cl)c(Cl)c2)c2ccccc21"
  Assay Endpoint: "TGI"
  Observed Value: "> 100 µM"
- Compound: "CCN(CC)CCNc1ccc2ncn3c4c(OC)ccc(OC)c4c(=O)c1c23"
  Assay Endpoint: "TGI"
  Observed Value: "38.5 µM"
- Compound: "O=C1c2ccccc2NC(c2cc(Cl)cc(Cl)c2O)N1CCc1ccccn1 (stereo unspecified)"
  Assay Endpoint: "TGI"
  Observed Value: "> 100 µM"
- Compound: "COc1cccc(C(=O)Nc2ccc(CN3CCc4nc5cc(OC)c(OC)cc5cc43)cc2)c1"
  Assay Endpoint: "TGI"
  Observed Value: "19.3 µM"
- Compound: "CO[C@H]1[C@@H](O)[C@@H](C)O[C@@H](O[C@H]2CC[C@@]3(C)[C@H](CC[C@@H]4[C@@H]3CC[C@]3(C)[C@@H](C5=CC(=O)OC5)CC[C@]43O)C2)[C@@H]1O"
  Assay Endpoint: "TGI"
  Observed Value: "0.0419 µM"
- Compound: "CC1=C(C(=O)N[C@@H](Cc2ccccc2)C(=O)O)N2C(=O)[C@@H](NC(=O)[C@@H](N)CC(C)C)[C@H]2SC1"
  Assay Endpoint: "TGI"
  Observed Value: "> 100 µM"
- Compound: "O=C1CSC(/C(=C/c2ccccc2)c2nc3ccccc3[nH]2)=N1"
  Assay Endpoint: "TGI"
  Observed Value: "> 100 µM"
- Compound: "Cc1cc2cccnc2c2ncccc12"
  Assay Endpoint: "TGI"
  Observed Value: "21.3 µM"
- Compound: "CC1(C)C(c2ccccc2)=NN(O)c2ccccc21"
  Assay Endpoint: "TGI"
  Observed Value: "> 100 µM"
- Compound: "Oc1ccc(Cl)cc1-c1[nH]c(=S)nc(-c2ccccc2)c1Cl"
  Assay Endpoint: "TGI"
  Observed Value: "> 100 µM"
- Compound: "CC12CCC([C@H](N3CCOCC3)/C1=N\\OCCN1CCCC1)C2(C)C (stereo partly specified)"
  Assay Endpoint: "TGI"
  Observed Value: "> 100 µM"
- Compound: "CC1(c2cccc3c2C2(O)C=CC4(CCC32)OCCO4)OCCO1 (stereo unspecified)"
  Assay Endpoint: "TGI"
  Observed Value: "> 100 µM"
- Compound: "C=C[C@@]1(C)CCC2(O)C(CCC3C2(C)CCC[C@@]3(C)COC(=O)CC(=O)OC)C1 (stereo partly specified)"
  Assay Endpoint: "TGI"
  Observed Value: "34.9 µM"
- Compound: "COc1cc(O)c2c(=O)c(OC)c(-c3ccc4c(c3)OCO4)oc2c1"
  Assay Endpoint: "TGI"
  Observed Value: "> 100 µM"
- Compound: "Nc1nc(Cl)c(N)c(NCC2(CO)CC(Cc3ccccc3)C2)n1 (stereo unspecified)"
  Assay Endpoint: "TGI"
  Observed Value: "> 100 µM"
- Compound: "O=C1NCN(c2ccccc2)C12CCN(CCc1ccc3[nH]c(=S)[nH]c3c1)CC2"
  Assay Endpoint: "TGI"
  Observed Value: "> 100 µM"
- Compound: "O=c1[nH]c(=O)n(C2CC(O)C(CO)O2)cc1OCCc1ccccc1 (stereo unspecified)"
  Assay Endpoint: "TGI"
  Observed Value: "> 100 µM"
- Compound: "N#CNC(N)=NCCO"
  Assay Endpoint: "TGI"
  Observed Value: "> 100 µM"
- Compound: "COC(=O)[C@H]1[C@H]2C[C@@H]3c4[nH]c5cc(OC)ccc5c4CCN3C[C@H]2C[C@@H](OC(=O)c2cc(OC)c(OC)c(OC)c2)[C@@H]1OC"
  Assay Endpoint: "TGI"
  Observed Value: "87.8 µM"
- Compound: "Oc1[nH]c2ccccc2c1N=NC(=S)N1CCCCC1"
  Assay Endpoint: "TGI"
  Observed Value: "2.42 µM"
- Compound: "CN(C)/C(N)=N/C(N)=Nc1cccc(Cl)c1"
  Assay Endpoint: "TGI"
  Observed Value: "> 100 µM"
- Compound: "COC(=O)/C=C/c1cnc2c(c1)oc(=O)n2CCc1ccccn1"
  Assay Endpoint: "TGI"
  Observed Value: "> 100 µM"
- Compound: "Oc1c(C(Nc2cccc3ccccc23)c2ccccc2)ccc2cccnc12 (stereo unspecified)"
  Assay Endpoint: "TGI"
  Observed Value: "62.1 µM"
- Compound: "COc1cc([N+](=O)[O-])c(S(=O)(=O)O)cc1NS(=O)(=O)c1ccc(C)cc1"
  Assay Endpoint: "TGI"
  Observed Value: "> 100 µM"
- Compound: "C[n+]1noc(/N=N\\[O-])c1-c1cc(-c2c(/N=N\\[O-])on[n+]2C)cc(-c2c(/N=N/[O-])on[n+]2C)c1"
  Assay Endpoint: "TGI"
  Observed Value: "> 100 µM"
- Compound: "COc1ccc(NS(=O)c2ccc(-c3ccccc3)cc2)cc1 (stereo unspecified)"
  Assay Endpoint: "TGI"
  Observed Value: "> 100 µM"
- Compound: "COc1cccc(/C(CC(O)(C(F)(F)F)C(F)(F)F)=N\\N(C)C)c1"
  Assay Endpoint: "TGI"
  Observed Value: "> 100 µM"
- Compound: "COc1cc(/C=N/Nc2ncnc3c2cnn3C(C)C)ccc1O"
  Assay Endpoint: "TGI"
  Observed Value: "> 25 µM"
- Compound: "O=c1[nH][nH]c(=O)[nH]1"
  Assay Endpoint: "TGI"
  Observed Value: "> 100 µM"
- Compound: "COc1cc(N2CCN(C(C)C)CC2)ccc1Nc1nc(Nc2cccc3ncccc23)c2cc[nH]c2n1"
  Assay Endpoint: "TGI"
  Observed Value: "> 21.6 µM"
- Compound: "CCSc1c(C)c2c(n(Cc3ccc(OC)cc3)c1=O)Cc1ccccc1C2"
  Assay Endpoint: "TGI"
  Observed Value: "> 100 µM"
